Numbers sourced from ChEMBL document CHEMBL1138885.

Molecular target: Norepinephrine transporter (Rattus norvegicus)
Sequence (Q9WTR4 whole entry): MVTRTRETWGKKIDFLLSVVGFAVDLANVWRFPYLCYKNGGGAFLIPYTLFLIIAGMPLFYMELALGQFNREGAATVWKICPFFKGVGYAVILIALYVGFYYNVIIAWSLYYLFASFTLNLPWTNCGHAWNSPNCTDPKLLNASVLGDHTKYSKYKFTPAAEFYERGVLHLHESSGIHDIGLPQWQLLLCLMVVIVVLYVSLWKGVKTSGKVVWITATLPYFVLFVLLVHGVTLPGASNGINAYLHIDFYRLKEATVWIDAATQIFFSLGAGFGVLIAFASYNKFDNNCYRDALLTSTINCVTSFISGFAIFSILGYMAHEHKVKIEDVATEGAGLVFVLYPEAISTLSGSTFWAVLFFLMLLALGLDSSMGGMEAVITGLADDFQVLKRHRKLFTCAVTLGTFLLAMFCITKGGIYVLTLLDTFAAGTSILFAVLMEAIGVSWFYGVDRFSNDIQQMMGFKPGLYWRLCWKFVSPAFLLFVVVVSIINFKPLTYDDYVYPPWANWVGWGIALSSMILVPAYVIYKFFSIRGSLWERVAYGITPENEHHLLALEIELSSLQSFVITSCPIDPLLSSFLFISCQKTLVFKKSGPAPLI
Assay: Inhibition of NET-mediated [3H]NE uptake in rat cerebral cortex
measuredParameter: pKi
// field semantics: pKi = negative decimal log of concentration (mol/L)

Data request: What pKi value was documented for this molecule, O[C@@H]1C[C@@H](C(c2ccccc2)c2ccccc2)OC[C@H]1NCc1ccc2[nH]ccc2c1 ?
Data returned: 8.67

Data request: Now the molecule c1ccc(C(c2ccccc2)[C@@H]2CC[C@H](NCc3ccc4[nH]ccc4c3)CO2)cc1
Data returned: 8.18

Data request: Likewise for Oc1ccc(CN[C@@H]2CO[C@H](C(c3ccccc3)c3ccccc3)C[C@H]2O)cc1 ?
Data returned: 7.98

Data request: Now try O[C@H]1C[C@H](C(c2ccccc2)c2ccccc2)OC[C@@H]1NCc1ccc2[nH]ccc2c1 .
Data returned: 7.88

Data request: Do the same for c1ccc(C(c2ccccc2)[C@H]2CC[C@@H](NCc3ccc4[nH]ccc4c3)CO2)cc1 please
Data returned: 7.81

Data request: What about this molecule? Oc1ccc(CN[C@H]2CO[C@@H](C(c3ccccc3)c3ccccc3)C[C@@H]2O)cc1
Data returned: 7.03
